Values compiled from patent US20260176270A1.

Tested on: phosphorylation of CDK1 at Thr14 in HCC1806 cells
Experiment: Cell lysate AlphaLISA assay measuring inhibition of phosphorylation of CDK1 Thr14
Type: cell-based
Conditions: 4 hours, read-out: Cellular IC50

{"COMPOUND": "Cc1ccc(O)c(C)c1-c1c(N)c(C(N)=O)cc2cc(Cl)cnc12 (atropisomer, axis not shown) [Compound 235]", "IC50": "≥ 5000 nM"}
{"COMPOUND": "Cc1c(O)cccc1-c1c(N)c(C(N)=O)cc2nc(C(F)(F)F)cnc12 [Compound 189]", "IC50": "500 to 1000 nM"}
{"COMPOUND": "NC(=O)c1nc2cccnc2c(-c2cccc3[nH]nc(F)c23)c1N (atropisomer, axis not shown) [Compound 305]", "IC50": "1000 to 5000 nM"}
{"COMPOUND": "Cc1ccc2c(-c3cccc(O)c3C)c(N)c(C(N)=O)nc2c1 (single isomer, unassigned) [Compound 49]", "IC50": "1000 to 5000 nM"}
{"COMPOUND": "Cc1ccc2[nH]nc(F)c2c1-c1c(N)c(C(N)=O)cc2nccnc12 (atropisomer, axis not shown) [Compound 299]", "IC50": "≥ 5000 nM"}
{"COMPOUND": "COc1ccnc2c(-c3cccc(O)c3C)c(N)c(C(N)=O)cc12 (atropisomer, axis not shown) [Compound 327]", "IC50": "< 50 nM"}
{"COMPOUND": "Cc1c(O)cccc1-c1c(N)c(C(N)=O)cc2ncccc12 [Compound 67]", "IC50": "1000 to 5000 nM"}
{"COMPOUND": "Cc1c(O)cccc1-c1c(N)c(C(N)=O)nc2cc(C(F)(F)F)cnc12 (atropisomer, axis not shown) [Compound 167]", "IC50": "≥ 5000 nM"}
{"COMPOUND": "Cc1c(O)cccc1-c1c(N)c(C(N)=O)cc2ccn(C)c(=O)c12 (atropisomer, axis not shown) [Compound 336]", "IC50": "50 to 500 nM"}
{"COMPOUND": "Cc1cnc2cc(C(N)=O)c(N)c(-c3c(C)ccc(O)c3C)c2n1 (atropisomer, axis not shown) [Compound 188]", "IC50": "50 to 500 nM"}
{"COMPOUND": "COc1ccc2nc(C(N)=O)c(N)c(-c3cccc(O)c3C)c2n1 (atropisomer, axis not shown) [Compound 174]", "IC50": "50 to 500 nM"}
{"COMPOUND": "CCn1ccc2cc(C(N)=O)c(N)c(-c3cccc(O)c3C)c2c1=O (atropisomer, axis not shown) [Compound 329]", "IC50": "50 to 500 nM"}
{"COMPOUND": "Cc1ccc(O)c(C)c1-c1c(N)c(C(N)=O)nc2c(C(F)(F)F)cccc12 (single isomer, unassigned) [Compound 30]", "IC50": "< 50 nM"}
{"COMPOUND": "Cc1cnc2c(-c3cccc(O)c3C)c(N)c(C(N)=O)cc2n1 (atropisomer, axis not shown) [Compound 209]", "IC50": "50 to 500 nM"}

----------
The compounds listed here are annotated with their IC50.
Target: PKMYT1 (Homo sapiens)
Sequence (Q99640 1-499): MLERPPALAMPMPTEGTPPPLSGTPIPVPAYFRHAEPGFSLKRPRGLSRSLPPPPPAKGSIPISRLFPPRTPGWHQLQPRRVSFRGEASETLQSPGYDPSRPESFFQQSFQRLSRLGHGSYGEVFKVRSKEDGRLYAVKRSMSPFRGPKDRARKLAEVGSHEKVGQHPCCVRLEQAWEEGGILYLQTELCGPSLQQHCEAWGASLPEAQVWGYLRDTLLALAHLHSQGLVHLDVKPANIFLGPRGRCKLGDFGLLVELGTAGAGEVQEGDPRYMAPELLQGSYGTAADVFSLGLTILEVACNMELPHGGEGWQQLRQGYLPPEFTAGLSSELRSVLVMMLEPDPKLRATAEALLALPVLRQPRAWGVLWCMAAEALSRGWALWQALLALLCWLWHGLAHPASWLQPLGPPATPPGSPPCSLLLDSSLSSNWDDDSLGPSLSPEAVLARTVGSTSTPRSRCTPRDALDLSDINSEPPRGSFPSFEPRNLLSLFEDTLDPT

{"COMPOUND": "CC1=C(c2c(N)c(C(N)=O)nc3cccnc23)CCC[C@@H]1O", "IC50": "≥ 5000 nM"}
{"COMPOUND": "NC(=O)c1nc2cccnc2c(-c2ccc(F)c3[nH]ncc23)c1N", "IC50": "50 to 500 nM"}
{"COMPOUND": "COc1ncncc1-c1c(N)c(C(N)=O)nc2cccnc12", "IC50": "500 to 1000 nM"}
{"COMPOUND": "Cc1c(-c2c(N)c(C(N)=O)cc3nccnc23)ccc(F)c1O (atropisomer, axis not shown) [Compound 307]", "IC50": "1000 to 5000 nM"}

----------
pIC50: −log10 of the molar value.
System: PKMYT1 (Homo sapiens, UniProt Q99640) | Read-out: pIC50
MEASURED_ENDPOINT: pIC50

{"COMPOUND": "Cc1c(-c2c(N)c(C(N)=O)cc3nccnc23)ccc(F)c1O (atropisomer, axis not shown) [Compound 295]", "MEASURED_ENDPOINT": "pIC50", "VAL": "> 7.30"}
{"COMPOUND": "Cc1ccc(O)c(C)c1-c1c(N)c(C(N)=O)cc2nc(C(F)(F)F)cnc12 (single isomer, unassigned) [Compound 111]", "MEASURED_ENDPOINT": "pIC50", "VAL": "5.30 to 6.00"}
{"COMPOUND": "Cc1c(O)cccc1-c1c(N)c(C(N)=O)cc2nc(C)c(=O)n(C)c12 (atropisomer, axis not shown) [Compound 170]", "MEASURED_ENDPOINT": "pIC50", "VAL": "≤ 5.30"}
{"COMPOUND": "Cc1ccc(O)c(C)c1-c1c(N)c(C(N)=O)nc2nccnc12 (single isomer, unassigned) [Compound 128]", "MEASURED_ENDPOINT": "pIC50", "VAL": "5.30 to 6.00"}
{"COMPOUND": "COc1nc2c(-c3cccc(O)c3C)c(N)c(C(N)=O)cc2nc1C [Compound 173]", "MEASURED_ENDPOINT": "pIC50", "VAL": "6.30 to 7.30"}
{"COMPOUND": "Cc1c(-c2c(N)c(C(N)=O)cc3nccnc23)ccc(F)c1O [Compound 227]", "MEASURED_ENDPOINT": "pIC50", "VAL": "> 7.30"}
{"COMPOUND": "Cc1c(C#N)cncc1-c1c(N)c(C(N)=O)nc2cccnc12 [Compound 317]", "MEASURED_ENDPOINT": "pIC50", "VAL": "5.30 to 6.00"}

----------
Test system: phosphorylation of CDK1 at Thr14 in HCC1806 cells
Test: Cell lysate AlphaLISA assay measuring inhibition of phosphorylation of CDK1 Thr14
Type: cell-based
Details: 4 hours, read-out: Cellular IC50
pIC50: −log10 of the molar value.

{"COMPOUND": "Cc1cncc(C2=c3ncccc3=NC(C(N)=O)C2N)c1C (stereo not drawn) [Compound 212]", "pIC50": "6.00 to 6.30"}
{"COMPOUND": "Cc1cc(O)c(C)c(-c2c(N)c(C(N)=O)nc3cccnc23)c1 (atropisomer, axis not shown) [Compound 286]", "pIC50": "≤ 5.30"}
{"COMPOUND": "Cc1ccc2[nH]nc(F)c2c1-c1c(N)c(C(N)=O)cc2nccnc12 (atropisomer, axis not shown) [Compound 300]", "pIC50": "5.30 to 6.00"}

----------
Biological target: PKMYT1 (Homo sapiens)
Construct: PKMYT1 (93 kD, full length, N-terminal GST tag from Signal Chem); GST (N); purchased Signal Chem
Sequence (Q99640 1-499): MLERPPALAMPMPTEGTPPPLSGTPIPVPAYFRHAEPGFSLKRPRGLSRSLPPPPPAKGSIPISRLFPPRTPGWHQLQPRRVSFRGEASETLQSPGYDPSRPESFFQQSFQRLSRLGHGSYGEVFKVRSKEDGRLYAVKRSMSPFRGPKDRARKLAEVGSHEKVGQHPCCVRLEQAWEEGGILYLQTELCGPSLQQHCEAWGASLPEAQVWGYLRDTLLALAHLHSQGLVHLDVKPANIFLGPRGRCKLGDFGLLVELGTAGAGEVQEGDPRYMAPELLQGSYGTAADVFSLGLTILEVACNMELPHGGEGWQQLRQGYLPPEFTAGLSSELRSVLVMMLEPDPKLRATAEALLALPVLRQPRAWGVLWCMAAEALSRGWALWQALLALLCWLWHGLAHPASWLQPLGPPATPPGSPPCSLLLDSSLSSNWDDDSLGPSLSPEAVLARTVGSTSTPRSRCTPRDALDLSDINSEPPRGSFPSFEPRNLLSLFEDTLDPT
Assay: ADP-Glo PKMYT1 ATP-depletion assay
Details: 50 nM PKMYT1, 13.3 nM CDK1, read-out: Biochemical IC50
The molecules listed here are annotated with their IC50.

{"MOLECULE": "Cc1ccc2[nH]ncc2c1-c1c(N)c(C(N)=O)nc2cccnc12 [Compound 6]", "SYSTEM_NAME": "PKMYT1 (Homo sapiens)", "IC50": "50 to 500 nM"}
{"MOLECULE": "Cc1ccc2c(-c3cccc(O)c3C)c(N)c(C(N)=O)nc2c1 (single isomer, unassigned) [Compound 50]", "SYSTEM_NAME": "PKMYT1 (Homo sapiens)", "IC50": "≥ 5000 nM"}
{"MOLECULE": "NC(=O)c1nc2cccnc2c(-c2cccc3c2CC(=O)N3)c1N", "SYSTEM_NAME": "PKMYT1 (Homo sapiens)", "IC50": "≥ 5000 nM"}
{"MOLECULE": "Cc1ccc2[nH]nc(F)c2c1-c1c(N)c(C(N)=O)cc2nccnc12 (atropisomer, axis not shown) [Compound 299]", "SYSTEM_NAME": "PKMYT1 (Homo sapiens)", "IC50": "≥ 5000 nM"}
{"MOLECULE": "Cc1c(O)cccc1-c1c(N)c(C(N)=O)nc2c(=O)[nH]cnc12", "SYSTEM_NAME": "PKMYT1 (Homo sapiens)", "IC50": "50 to 500 nM"}
{"MOLECULE": "COc1cccc(-c2c(N)c(C(N)=O)nc3cccnc23)c1C", "SYSTEM_NAME": "PKMYT1 (Homo sapiens)", "IC50": "≥ 5000 nM"}
{"MOLECULE": "Cc1ccc2[nH]ncc2c1-c1c(N)c(C(N)=O)cc2ncccc12", "SYSTEM_NAME": "PKMYT1 (Homo sapiens)", "IC50": "50 to 500 nM"}
{"MOLECULE": "NC(=O)c1cc2nccnc2c(-c2ccnc3[nH]ncc23)c1N", "SYSTEM_NAME": "PKMYT1 (Homo sapiens)", "IC50": "1000 to 5000 nM"}
